# tested on: human organic anion transporter 4 (hOAT4) (Homo sapiens, UniProt Q9NSA0)
# Construct: gene SLC22A11
# Sequence (Q9NSA0 whole entry): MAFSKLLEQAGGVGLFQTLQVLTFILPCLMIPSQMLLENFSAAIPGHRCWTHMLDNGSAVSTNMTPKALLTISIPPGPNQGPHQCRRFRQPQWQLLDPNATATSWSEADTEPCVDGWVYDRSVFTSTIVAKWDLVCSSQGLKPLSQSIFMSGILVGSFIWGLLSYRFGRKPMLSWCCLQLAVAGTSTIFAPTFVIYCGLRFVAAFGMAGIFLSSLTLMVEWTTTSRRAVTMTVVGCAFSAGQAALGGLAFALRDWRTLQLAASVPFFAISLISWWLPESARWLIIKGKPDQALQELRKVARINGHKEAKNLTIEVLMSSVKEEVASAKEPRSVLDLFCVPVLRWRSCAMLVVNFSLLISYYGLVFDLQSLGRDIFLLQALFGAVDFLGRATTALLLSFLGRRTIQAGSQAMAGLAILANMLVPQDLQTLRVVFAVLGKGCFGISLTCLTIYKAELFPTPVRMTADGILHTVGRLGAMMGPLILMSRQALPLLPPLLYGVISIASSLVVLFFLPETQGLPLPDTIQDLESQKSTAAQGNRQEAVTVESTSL
# experiment: inhibition of [3H]-estrone sulfate uptake in stable hOAT4-expressing COS-7 cells, Dixon plot (IC50 […])
# Format: cell-based
Where a name gives a salt, the structure may show the parent alone.
readout: pKi
Numbers only, as −log10 of the molar value.

Tell me the measured pKi of COc1cccc2c1C(=O)c1c(O)c3c(c(O)c1C2=O)C[C@@](O)(C(=O)CO)C[C@@H]3O[C@H]1C[C@H](N)[C@@H](O)[C@H](C)O1 [epirubicin hydrochloride] , please.
5.52

###

# tested on: human organic anion transporter 4 (hOAT4) (Homo sapiens, UniProt Q9NSA0)
# Construct: gene SLC22A11
# experiment: inhibition of [3H]-estrone sulfate uptake in stable hOAT4-expressing COS-7 cells, Dixon plot (IC50 […]); trans-inhibition
# Format: cell-based
Where a name gives a salt, the structure may show the parent alone.
readout: Ki (µM)
One number for each entry, in µM.

Tell me the measured Ki of CC(C)(C)c1nc(-c2cccc(NS(=O)(=O)c3c(F)cccc3F)c2F)c(-c2ccnc(N)n2)s1 [Dab, dabrafenib mesylate] , please.
4.26
